These entries and their values trace back to patent US12441726B2.

Target: BRM (Homo sapiens, UniProt P51531)
Sequence (P51531 whole entry): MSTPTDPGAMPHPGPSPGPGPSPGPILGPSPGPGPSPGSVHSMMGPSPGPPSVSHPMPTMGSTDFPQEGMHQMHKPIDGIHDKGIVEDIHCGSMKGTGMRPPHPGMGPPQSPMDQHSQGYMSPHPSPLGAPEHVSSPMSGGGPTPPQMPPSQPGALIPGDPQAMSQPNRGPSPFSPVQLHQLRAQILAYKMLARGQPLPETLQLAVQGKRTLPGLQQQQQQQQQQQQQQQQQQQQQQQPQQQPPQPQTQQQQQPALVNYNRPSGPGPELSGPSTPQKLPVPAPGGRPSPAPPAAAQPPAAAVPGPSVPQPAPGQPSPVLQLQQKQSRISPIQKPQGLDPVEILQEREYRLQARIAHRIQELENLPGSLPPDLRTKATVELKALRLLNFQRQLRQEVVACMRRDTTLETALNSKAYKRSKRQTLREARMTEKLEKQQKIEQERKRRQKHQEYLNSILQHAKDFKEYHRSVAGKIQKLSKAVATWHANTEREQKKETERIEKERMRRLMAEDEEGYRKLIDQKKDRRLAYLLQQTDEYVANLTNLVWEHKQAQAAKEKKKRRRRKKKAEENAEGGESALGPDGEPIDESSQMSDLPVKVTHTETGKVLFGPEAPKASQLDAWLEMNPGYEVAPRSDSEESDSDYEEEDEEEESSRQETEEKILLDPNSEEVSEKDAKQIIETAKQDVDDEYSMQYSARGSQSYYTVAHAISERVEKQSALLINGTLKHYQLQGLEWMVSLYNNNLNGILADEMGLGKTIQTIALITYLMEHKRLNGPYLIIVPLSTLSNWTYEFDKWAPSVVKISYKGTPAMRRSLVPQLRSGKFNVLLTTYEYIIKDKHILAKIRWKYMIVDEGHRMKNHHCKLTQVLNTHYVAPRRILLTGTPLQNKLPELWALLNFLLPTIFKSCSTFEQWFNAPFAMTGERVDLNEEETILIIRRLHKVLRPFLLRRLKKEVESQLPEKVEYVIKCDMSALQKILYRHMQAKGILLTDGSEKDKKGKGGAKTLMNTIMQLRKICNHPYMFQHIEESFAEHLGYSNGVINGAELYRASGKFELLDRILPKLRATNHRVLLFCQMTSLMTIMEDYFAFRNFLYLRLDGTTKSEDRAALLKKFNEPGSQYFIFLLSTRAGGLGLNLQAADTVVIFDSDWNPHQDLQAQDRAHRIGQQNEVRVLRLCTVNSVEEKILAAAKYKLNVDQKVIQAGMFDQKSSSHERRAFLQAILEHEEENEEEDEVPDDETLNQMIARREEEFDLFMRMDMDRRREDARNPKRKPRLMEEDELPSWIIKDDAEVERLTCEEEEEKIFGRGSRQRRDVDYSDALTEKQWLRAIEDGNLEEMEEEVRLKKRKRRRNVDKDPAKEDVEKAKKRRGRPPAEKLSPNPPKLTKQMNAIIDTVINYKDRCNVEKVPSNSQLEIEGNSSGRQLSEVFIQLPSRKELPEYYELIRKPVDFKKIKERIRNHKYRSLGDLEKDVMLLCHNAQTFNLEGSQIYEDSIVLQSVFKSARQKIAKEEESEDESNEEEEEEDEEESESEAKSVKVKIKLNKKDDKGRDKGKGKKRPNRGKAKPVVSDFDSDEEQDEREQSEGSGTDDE
Assay: ATPase catalytic activity assay (ADP-Glo), BRM
Details: BRM ATPase: IC50 (uM), 30 nM BRM, 400 μM ATP
measurement name: IC50

Sample records with IC50:
- compound string: "C[C@@]1(C#N)COCc2ccc(C(=O)NCc3cc4nc(-c5ccn6nccc6n5)ccc4cn3)cc21"
  result: "0.1 to 0.5 µM"
- compound string: "C[C@@H](NC(=O)c1ccc2c(c1)[C@](C)(C#N)COC2)c1cc2nc(-c3ccccc3)ccc2cn1"
  result: "0.1 to 0.5 µM"
- compound string: "C[C@@]1(C#N)COCc2ccc(C(=O)NCc3cc4nc(-c5cccc(C(F)F)c5)ccc4cn3)cc21"
  result: "< 0.1 µM"

[ask] # input compound: C[C@@]1(F)COCc2ncc(C(=O)NCc3cc4nc(-c5cncc(N6CCC6)n5)ccc4cn3)cc21 ; wanted: its IC50
[reply] 0.1 to 0.5 µM

[ask] Further, for COC(=O)c1cccc(C#Cc2ccnc(CNC(=O)c3ccc4c(c3)[C@](C)(C#N)COC4)c2)c1 ?
[reply] < 0.1 µM

[ask] Also, C[C@@]1(C#N)COCc2ccc(C(=O)NCc3cc4nc(-c5cccc(C6(C(F)F)COC6)c5)ccc4cn3)cc21 please.
[reply] 0.1 to 0.5 µM

[ask] How about this compound: C[C@@]1(C#N)COCc2ccc(C(=O)NCc3cc4nc(-c5cc6ccccn6n5)ccc4cn3)cc21
[reply] 0.1 to 0.5 µM

[ask] Thanks! And CN(C)c1cccc(-c2ccc3nnc(CNC(=O)c4ccc5c(c4)[C@](C)(C#N)COC5)cc3n2)n1 ?
[reply] < 0.1 µM

[ask] Now consider C[C@@]1(F)COCc2ccc(C(=O)NCc3cc4cc(-c5cccc(N6CCC6)n5)cnc4cn3)cc21 and answer again.
[reply] < 0.1 µM

[ask] And for C[C@@]1(C#N)COCc2ccc(C(=O)NCc3cc4nc(-c5cnc6cccnn56)ccc4cn3)cc21 ?
[reply] < 0.1 µM

[ask] Further, for C[C@]1(F)CCCc2ncc(C(=O)NCc3cc4nc(-c5cncc(C6CC6)n5)ccc4cn3)cc21 ?
[reply] 0.1 to 0.5 µM

[ask] Lookup C[C@@]1(C#N)CCNc2ccc(C(=O)NCc3cc4nc(-c5ccccc5)ccc4cn3)cc21
[reply] > 1 µM

[ask] // next record C[C@@]1(F)COCc2ccc(C(=O)NCc3cc4nc(-c5cccc(N6CCC6)n5)ccc4cn3)cc21
[reply] < 0.1 µM

[ask] Cool, now COc1cccc([C@H]2C[C@H](c3ccnc(CNC(=O)c4ccc5c(c4)[C@](C)(C#N)COC5)c3)C2)c1
[reply] < 0.1 µM

---

Target: UniProt:P51532
Assay: ATPase catalytic activity assay (ADP-Glo), BRG-1
pIC50: −log10 of the molar value.
measurement name: pIC50

- compound string: "C[C@@]1(C#N)COCc2ccc(C(=O)NCc3cc4nc(-c5ccccc5OCCO)ccc4cn3)cc21"
  pIC50: "6.00 to 6.30"

[ask] Item CNC(=O)c1cc(-c2ccc3cnc(CNC(=O)c4ccc5c(c4)[C@](C)(C#N)COC5)cc3n2)ccn1 has what recorded pIC50?
[reply] 6.00 to 6.30

[ask] Moving on to the next compound: C[C@@]1(F)COCc2ccc(C(=O)NCc3cc4nc(-c5cccc(N6CCC6)n5)cnc4cn3)cc21
[reply] 6.30 to 7.00

[ask] And what about the compound C[C@@]1(C#N)COCc2ccc(C(=O)NCc3cc4nc(-c5ccc(C(F)F)cc5)ccc4cn3)cc21 ?
[reply] 6.30 to 7.00

---

Target: BRM (Homo sapiens)
Assay: ATPase catalytic activity assay (ADP-Glo), BRM
Conditions: BRM ATPase: IC50 (uM), 30 nM BRM, 400 μM ATP
measurement name: IC50

Guide cases for IC50, answers given:
- compound string: "COCCN1CCN(c2cccc(-c3ccc4cnc(CNC(=O)c5ccc6c(c5)[C@](C)(C#N)COC6)cc4n3)n2)CC1"
  tested target: "BRM (Homo sapiens)"
  IC50: "0.1 to 0.5 µM"
- compound string: "C[C@@]1(C#N)COCc2ccc(C(=O)NCc3cc4c(cn3)CCN(c3cccc(N5CCC5)n3)C4)cc21"
  tested target: "BRM (Homo sapiens)"
  IC50: "< 0.1 µM"
- compound string: "C[C@@]1(C#N)COCc2ccc(C(=O)NCc3cc4cc(-n5cc(F)c(N6CCC6)n5)ccc4nn3)cc21"
  tested target: "BRM (Homo sapiens)"
  IC50: "< 0.1 µM"
- compound string: "Cn1ccc2nc(-c3ccc4cnc(CNC(=O)c5ccc6c(c5)[C@](C)(C#N)COC6)cc4n3)sc2c1=O"
  tested target: "BRM (Homo sapiens)"
  IC50: "0.1 to 0.5 µM"
- compound string: "COc1ccc([C@H]2C[C@H](c3ccnc(CNC(=O)c4ccc5c(c4)[C@](C)(C#N)COC5)c3)C2)cc1"
  tested target: "BRM (Homo sapiens)"
  IC50: "< 0.1 µM"

Now look at this one.
[ask] Quick check: IC50 of C[C@@]1(C#N)COCc2ccc(C(=O)NCc3cc4nc(-c5cccc(N6CCC6)c5)ccc4cn3)cc21 ?
[reply] 0.1 to 0.5 µM

---

Target: BRG-1 (Homo sapiens, UniProt P51532)
Sequence (P51532 whole entry): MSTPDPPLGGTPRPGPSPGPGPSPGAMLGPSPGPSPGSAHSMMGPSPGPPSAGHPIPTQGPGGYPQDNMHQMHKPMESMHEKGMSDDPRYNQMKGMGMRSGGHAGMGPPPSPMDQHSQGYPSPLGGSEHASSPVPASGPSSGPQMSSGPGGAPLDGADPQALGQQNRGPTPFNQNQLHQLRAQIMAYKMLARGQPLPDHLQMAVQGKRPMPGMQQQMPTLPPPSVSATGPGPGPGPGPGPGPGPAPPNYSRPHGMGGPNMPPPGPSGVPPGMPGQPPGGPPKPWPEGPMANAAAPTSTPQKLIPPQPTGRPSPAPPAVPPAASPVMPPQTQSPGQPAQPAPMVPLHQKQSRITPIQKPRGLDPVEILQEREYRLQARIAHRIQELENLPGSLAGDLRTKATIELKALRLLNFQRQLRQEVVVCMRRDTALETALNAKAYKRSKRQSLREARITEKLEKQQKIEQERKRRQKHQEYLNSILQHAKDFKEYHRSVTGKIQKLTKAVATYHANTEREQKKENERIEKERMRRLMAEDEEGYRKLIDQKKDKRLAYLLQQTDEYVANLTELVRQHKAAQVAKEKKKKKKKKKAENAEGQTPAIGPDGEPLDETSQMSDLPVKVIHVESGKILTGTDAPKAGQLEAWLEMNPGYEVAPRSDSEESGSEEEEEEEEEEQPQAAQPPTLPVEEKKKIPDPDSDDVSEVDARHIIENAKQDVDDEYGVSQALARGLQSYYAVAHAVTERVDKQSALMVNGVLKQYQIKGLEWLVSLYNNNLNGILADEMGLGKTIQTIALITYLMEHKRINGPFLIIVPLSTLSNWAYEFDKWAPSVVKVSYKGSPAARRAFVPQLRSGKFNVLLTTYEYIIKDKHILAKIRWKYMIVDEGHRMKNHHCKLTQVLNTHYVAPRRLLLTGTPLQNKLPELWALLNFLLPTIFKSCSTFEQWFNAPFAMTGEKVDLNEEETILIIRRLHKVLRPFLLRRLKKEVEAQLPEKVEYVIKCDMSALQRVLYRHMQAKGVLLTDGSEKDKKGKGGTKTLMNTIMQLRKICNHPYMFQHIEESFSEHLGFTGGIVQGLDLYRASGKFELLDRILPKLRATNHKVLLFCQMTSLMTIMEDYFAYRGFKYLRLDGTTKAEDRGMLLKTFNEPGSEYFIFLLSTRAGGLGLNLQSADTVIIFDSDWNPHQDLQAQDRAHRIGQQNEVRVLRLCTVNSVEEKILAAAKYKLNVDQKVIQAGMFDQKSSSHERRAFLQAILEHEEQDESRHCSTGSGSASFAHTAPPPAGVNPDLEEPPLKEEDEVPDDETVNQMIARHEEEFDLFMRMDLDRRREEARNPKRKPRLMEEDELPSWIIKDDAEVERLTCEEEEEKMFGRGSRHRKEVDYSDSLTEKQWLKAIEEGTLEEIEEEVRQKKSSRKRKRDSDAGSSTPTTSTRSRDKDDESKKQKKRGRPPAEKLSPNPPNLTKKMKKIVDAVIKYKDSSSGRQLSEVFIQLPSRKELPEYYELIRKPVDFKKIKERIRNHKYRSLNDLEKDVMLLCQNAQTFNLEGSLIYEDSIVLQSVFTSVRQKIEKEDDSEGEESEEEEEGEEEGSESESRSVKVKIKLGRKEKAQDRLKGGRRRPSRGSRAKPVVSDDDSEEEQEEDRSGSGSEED
Assay: ATPase catalytic activity assay (ADP-Glo), BRG-1
measurement name: IC50

[ask] Recorded IC50 of COC(=O)N1CCC=C(c2ccc3cnc(CNC(=O)c4ccc5c(c4)[C@](C)(F)COC5)cc3n2)C1 , please.
[reply] > 1000 nM

[ask] And the next one, C[C@@]1(F)COCc2ccc(C(=O)NCc3cc4nc(-c5ccnc(N6CCC6)c5F)cnc4cn3)cc21 ?
[reply] 100 to 500 nM

[ask] Try this molecule too: C[C@@]1(C#N)COCc2ncc(C(=O)NCc3cc4nc(-c5ccccc5)ccc4cn3)cc21
[reply] > 1000 nM

[ask] Would you mind doing C[C@@]1(C#N)COCc2ccc(C(=O)NCc3cc(/C(F)=C/c4ccccc4)ccn3)cc21 as well?
[reply] > 1000 nM

[ask] // same read-out, input: C[C@@]1(C#N)COCc2ccc(C(=O)NCc3cc4cc(-c5ccccc5)ccc4nn3)cc21
[reply] 100 to 500 nM

---

Some molecules, each annotated with its measured BRM Max % Inhibition.
Target: BRM (Homo sapiens)
Assay: ATPase catalytic activity assay (ADP-Glo), BRM
Conditions: 30 nM BRM, 400 μM ATP
API: value field is a number in %; no unit string.

- compound string: "COc1cc(-c2ccc3cnc(CNC(=O)c4ccc5c(c4)[C@](C)(C#N)COC5)cc3n2)c(F)cn1"
  BRM Max % Inhibition (%): 87
- compound string: "CCOC(=O)C12CCC(CC1)N(c1ccc3cnc(CNC(=O)c4ccc5c(c4)[C@](C)(C#N)COC5)cc3n1)C2"
  BRM Max % Inhibition (%): 89
- compound string: "COc1c(F)cccc1-c1ccc2cnc(CNC(=O)c3ccc4c(c3)[C@](C)(C#N)COC4)cc2n1"
  BRM Max % Inhibition (%): 96
- compound string: "C[C@@]1(C#N)COCc2ccc(C(=O)NCc3cc4nc(-c5ccnc(N6CCC6)c5F)sc4cn3)cc21"
  BRM Max % Inhibition (%): 99

Now for the molecule whose BRM Max % Inhibition we want.
[ask] # get_value(readout='BRM Max % Inhibition', item= COC(=O)c1cccc(-c2ccc3cnc(CNC(=O)c4ccc5c(c4)[C@](C)(C#N)COC5)cc3n2)c1 )
[reply] 99

---

Biological target: BRG-1 (Homo sapiens, UniProt P51532)
Assay: ATPase catalytic activity assay (ADP-Glo), BRG-1
measurement name: IC50

Examples from the recorded data:
- compound: "COc1ccc([C@H]2C[C@@H](c3ccnc(CNC(=O)c4ccc5c(c4)[C@](C)(C#N)COC5)c3)C2)cc1 [Compound 70]"
  IC50: "0.5 to 1 µM"
- compound: "C[C@@]1(F)COCc2ccc(C(=O)NCc3cc4nc(-c5ccnn(C6CC6)c5=O)ccc4cn3)cc21 [Compound 268]"
  IC50: "0.5 to 1 µM"
- compound: "CCOC(=O)C12CCC(CC1)N(c1ccc3cnc(CNC(=O)c4ccc5c(c4)[C@](C)(C#N)COC5)cc3n1)C2 [Compound 502]"
  IC50: "0.5 to 1 µM"

[ask] Request: IC50, test system BRG-1 (Homo sapiens, UniProt P51532), entry COc1nn(C2CC2)cc1-c1ccc2cnc(CNC(=O)c3ccc4c(c3)[C@](C)(C#N)COC4)cc2n1 [Compound 225]
[reply] 0.5 to 1 µM

[ask] What about C[C@@]1(C#N)COCc2ccc(C(=O)NCc3cc4cc(-c5cccc(N6CCC6)n5)ccc4nn3)cc21 [Compound 351] ?
[reply] 0.1 to 0.5 µM

[ask] Similarly, COc1nn(C)cc1-c1cnc2cnc(CNC(=O)c3ccc4c(c3)[C@](C)(F)COC4)cc2c1 [Compound 338] ?
[reply] 0.5 to 1 µM

[ask] Similarly, COc1cc(C(F)F)ccc1-c1ccc2cnc(CNC(=O)c3ccc4c(c3)[C@](C)(C#N)COC4)cc2n1 [Compound 157] ?
[reply] 0.1 to 0.5 µM

[ask] Now this one: COc1nn(C(F)F)cc1-c1ccc2cnc(CNC(=O)c3ccc4c(c3)[C@](C)(C#N)COC4)cc2n1 [Compound 193]
[reply] 0.5 to 1 µM

[ask] Likewise for COc1nn(C2COC2)cc1-c1ccc2cnc(CNC(=O)c3ccc4c(c3)[C@](C)(F)COC4)cc2n1 [Compound 201] ?
[reply] 0.5 to 1 µM

[ask] Let us now turn to CN(C)c1ncc(-c2ccc3cnc(CNC(=O)c4ccc5c(c4)[C@](C)(C#N)COC5)cc3n2)cn1 [Compound 472]
[reply] > 1 µM

[ask] Cool, now C[C@@]1(C#N)COCc2ccc(C(=O)NCc3cc4nc(-c5ccncc5)sc4cn3)cc21 [Compound 438]
[reply] > 1 µM

[ask] Also CN1Cc2ccc(-c3ccc4cnc(CNC(=O)c5ccc6c(c5)[C@](C)(C#N)COC6)cc4n3)cc2C1=O [Compound 485] , if possible.
[reply] 0.5 to 1 µM

[ask] // query: C[C@@]1(F)COCc2ccc(C(=O)NCc3cc4nc(-c5cccc(N6CCCC6=O)n5)ccc4nn3)cc21 [Compound 239]
[reply] 0.1 to 0.5 µM
